ASSAY: chemical genetic growth profiling, strain panel (AID 1159580);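 note: tested at 20 µM; growth read once vehicle control cultures reached saturation at 30 °C; 1 = growth at the plate median or of vehicle wells; lower values mean less growth of the strain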
COND: S. cerevisiae deletion strains, growth OD, locus YER110C, active compounds read low
Hit rate of the full screen: of about 5,500 compounds, about 2,000 (36%) were called active. Inconclusive results (about 18%) are left out. The list shows a part of the results.
READOUT_LABEL: normalized growth
Give only the figure.

Previously resolved entries follow.
1) CC1(C)C(=O)C=CC2(C)C3CCC4(C)C(c5ccoc5)CC5OC54C3C(O)CC12 (stereo not given)	1.03
2) CC1(C)C(O)CC(O)C2(C)C1CC(=O)C1(C)C2CCC2(C)C(C(=O)O)OC(=O)C3OC321 (stereo not given)	0.995

Lab book: normalized growth of CC1(C)C(C(Cl)Cl)C2(Cl)C(Cl)C(Cl)C1(Cl)C2(Cl)Cl (stereo not given) noted as 0.981

Lab book: normalized growth of COc1ccccc1OCCNCC(O)COc1cccc2[nH]c3ccccc3c12 (stereo not given) noted as 1.02

Lab book: normalized growth of CC1(C)C(=O)C=C[C@@]2(C)C1=C(O)C(=O)[C@]1(C)C2CC[C@@]2(C)[C@H](c3ccoc3)C[C@H]3O[C@]321 (stereo not given in full) noted as 0.978

Lab book: normalized growth of `Cc1ccc2cc3c(ccc4ccccc43)c3c2c1CC3` noted as 0.952

Lab book: normalized growth of CC(=O)O[C@@H]1C[C@@]2(C)[C@H](c3ccoc3)C[C@H]3O[C@]32[C@]2(C)C(=O)C(O)=C3C(C)(C)C(=O)C=C[C@]3(C)C12 (stereo not given in full) noted as 0.953

Lab book: normalized growth of CC(=O)O[C@@H]1CC2C(C)(C)C(=O)CC[C@]2(C)C2CC[C@]3(C)C(=CC(=O)O[C@H]3c3ccoc3)[C@@]21C (stereo not given in full) noted as 0.978

Lab book: normalized growth of `CNC[C@@H](O)c1ccc(O)c(O)c1` noted as 0.984

Lab book: normalized growth of `O=[N+]([O-])c1ccc(O)c([N+](=O)[O-])c1` noted as 0.64

Lab book: normalized growth of CC1(C)CC2C1(O)CCC1(C)C=CC(O)C21CO (stereo not given) noted as 0.959

Lab book: normalized growth of `O=[N+]([O-])c1cc([As](=O)(O)O)ccc1O` noted as 0.566

Lab book: normalized growth of CC(C)(C)NCC(O)c1ccccc1Cl (stereo not given) noted as 0.966

Lab book: normalized growth of CC(=O)O[C@@H]1CC2C(C)(C)C=CC(=O)[C@]2(C)C2CC[C@@]3(C)[C@H](c4ccoc4)OC(=O)C4OC43[C@@]21C (stereo not given in full) noted as 1

Lab book: normalized growth of NC(=NCCC[C@H](N)C(=O)O)NC(CCC(=O)O)C(=O)O (stereo not given in full) noted as 1.01

Lab book: normalized growth of `Cc1occc(=O)c1/C=C/O` noted as 1.02

Lab book: normalized growth of CCC(Cc1c(I)cc(I)c(N)c1I)C(=O)O (stereo not given) noted as 1

Lab book: normalized growth of `COc1cc2c(c(OC)c1OC)-c1ccc(OC)c(=O)cc1[C@@H](NC(C)=O)CC2` noted as 1.02

Lab book: normalized growth of `Cc1occc(=O)c1O` noted as 1.01

Lab book: normalized growth of `OC[C@@H](O)[C@@H](O[C@@H]1O[C@H](CO)[C@@H](O)[C@H](O)[C@H]1O)[C@H](O)[C@@H](O)CO` noted as 1.02
